Data provenance: patent US20100227824A1

Target: T1, RANTES (CCL5) (UniProt P13501 24-91)
T1 construct: Bought chemokine
T1 sequence (looked up): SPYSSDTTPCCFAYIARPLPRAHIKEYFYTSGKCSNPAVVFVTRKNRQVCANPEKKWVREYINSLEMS
Assay: micro-array, phage-presented peptide on printed CK
Ends that are not written are not given here.

[
  {
    "BINDER": "HYTCSSHFP (also: displayed on M13 phage, fusion not given here) [Phage-Presented Peptide 17 (Ph-p17)]",
    "Relative Fluorescence Units (RFU)": "> 600 RFU"
  },
  {
    "BINDER": "HHTCSLHFP [Phage-Presented Peptide 16 (Ph-p16)]",
    "Relative Fluorescence Units (RFU)": "> 15000 RFU"
  },
  {
    "BINDER": "DYDY [Phage-Presented Peptide 32 (Ph-p32)]",
    "Relative Fluorescence Units (RFU)": "> 10000 RFU"
  },
  {
    "BINDER": "DYDYGAPC [Phage-Presented Peptide 30 (Ph-p30)]",
    "Relative Fluorescence Units (RFU)": "> 15000 RFU"
  },
  {
    "BINDER": "DYDYG [Phage-Presented Peptide 31 (Ph-p31)]",
    "Relative Fluorescence Units (RFU)": "> 15000 RFU"
  }
]
